Biological target: Human TDO (hTDO)-transfected CHO-K1 cells (Homo sapiens (Human))
Sequence (P48775 whole entry): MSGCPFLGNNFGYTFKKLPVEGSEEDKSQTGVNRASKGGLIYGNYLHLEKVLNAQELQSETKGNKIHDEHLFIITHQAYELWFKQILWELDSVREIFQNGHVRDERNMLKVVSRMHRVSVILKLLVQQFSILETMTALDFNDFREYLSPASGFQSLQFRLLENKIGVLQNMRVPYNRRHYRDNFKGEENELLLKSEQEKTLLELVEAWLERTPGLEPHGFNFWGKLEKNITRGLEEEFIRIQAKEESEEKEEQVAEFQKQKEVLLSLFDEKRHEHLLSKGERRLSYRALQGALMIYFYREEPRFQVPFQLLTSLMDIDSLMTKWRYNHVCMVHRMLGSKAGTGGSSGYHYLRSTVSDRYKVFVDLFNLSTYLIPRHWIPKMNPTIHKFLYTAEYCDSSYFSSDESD
Assay: CHO-K1 cell based TDO assay
Conditions: hTDO cellular assay
Structures can show the parent of a compound that is named as a salt.
Let's look at some compounds and their measured IC50.
readout: IC50

compound	readout	result
COc1cc2c(Nc3ccc(F)c(Cl)c3)c(N)oc2cn1	IC50	500 to 2000 nM
Nc1oc2cnccc2c1Nc1cccc(CC2CCC2)c1	IC50	> 2000 nM
COc1ccccc1-c1nccc2c(Nc3ccc(F)c(Cl)c3)c(N)oc12	IC50	500 to 2000 nM
CCOC(=O)Nc1oc2c(-c3ccccc3)nccc2c1Nc1ccc(F)c(Cl)c1	IC50	> 2000 nM
CN(c1ccccc1)c1c(N)sc2ccccc12 [Compound 135, hydrochloride]	IC50	> 2000 nM
Cc1cc(-c2nccc3c(Nc4ccccc4N4CCCCC4)c(N)oc23)ccn1	IC50	> 2000 nM
C#Cc1ccc(Nc2c(N)oc3cnccc23)cc1	IC50	500 to 2000 nM
COc1cncc2oc(N)c(Nc3ccc(F)c(Cl)c3)c12	IC50	500 to 2000 nM
Nc1oc2c(-c3ccncc3)nccc2c1Nc1ccc(F)c(C(F)(F)F)c1	IC50	500 to 2000 nM
Nc1oc2c(-c3cccc(Cl)c3)nccc2c1Nc1ccc(F)c(Cl)c1	IC50	> 2000 nM
Nc1oc2cnccc2c1Nc1cccc(CC2CC2)c1	IC50	> 2000 nM
Nc1oc2cnccc2c1Nc1ccc(Cl)cc1	IC50	500 to 2000 nM
Nc1oc2cnccc2c1Nc1ccc(Cl)c(Cl)c1Cl	IC50	> 2000 nM
Nc1oc2c(F)nccc2c1Nc1ccc(F)c(C(F)(F)F)c1	IC50	500 to 2000 nM
CNC(=O)c1cc(-c2nccc3c(Nc4cccc(C(F)(F)F)c4)c(N)oc23)ccn1	IC50	> 2000 nM
Nc1oc2cnc(F)cc2c1Nc1ccc(F)c(Cl)c1	IC50	< 500 nM
Cc1ncc(C)c2c(Nc3ccc(F)c(Cl)c3)c(N)oc12	IC50	500 to 2000 nM
Nc1oc2c(-c3ccncc3)nccc2c1Nc1cc(F)cc(F)c1	IC50	< 500 nM
N#Cc1ccc2c(Nc3cccc(C(F)(F)F)c3)c(N)oc2c1	IC50	500 to 2000 nM
Nc1oc2cnccc2c1Nc1cc(Cl)c(F)c(Cl)c1	IC50	500 to 2000 nM

====

pIC50: −log10 of the molar value.
pIC50, Human indoleamine 2,3-dioxygenase1 (hIDO1) (Homo sapiens (Human)), per-entry values.
readout: pIC50

molecule	result
Cc1cc(C)cc(Nc2c(N)oc3cnccc23)c1 [Compound 14]	6.00 to 6.70
Nc1oc2c(F)nc(F)cc2c1Nc1ccc(F)c(Cl)c1 [Compound 190]	> 6.70
N#Cc1nccc2c(Nc3ccc(F)c(Cl)c3)c(NC(=O)OCc3ccccc3)oc12 [Compound 155]	< 6.00
CCc1cccc(Nc2c(N)oc3cnccc23)c1 [Compound 19]	6.00 to 6.70
CCOC(=O)Nc1oc2c(-c3cccc(C#N)c3)nccc2c1N(C(=O)OCC)c1ccc(F)c(Cl)c1 [Compound 146]	< 6.00
CCOC(=O)Nc1oc2cnccc2c1N(C(=O)OCC)c1ccc(F)c(Cl)c1 [Compound 142]	< 6.00
N#Cc1nccc2c(Nc3cc(F)cc(F)c3)c(N)oc12 [Compound 186]	< 6.00
N#Cc1ccc(-c2cccc3c(Nc4ccc(F)c(Cl)c4)c(N)sc23)cc1 [Compound 212]	> 6.70
Nc1oc2cnccc2c1Nc1cc(F)c(F)c(Br)c1 [Compound 22]	< 6.00
